Test system: endogenous target monocytes in human PBMC
test: PBMC ex vivo monocyte depletion flow cytometry assay (Example 200)
Type: cell-based
measurement-conditions: with anti-cotinine antibody (SEQ ID NO: 11/12), 18-24 hours, EC50 in molar, read-out: Ex Vivo Depletion Assay pEC50 (converted)
measurement-name: log10 of EC50 (log10 of the value in nM)
Short version: log10 scale, EC50, nM.

Below, 2 compounds whose answers are already recorded.
CC(C)N(C)[C@@H]1CC[C@H](N2CC[C@H](Nc3ncnc4ccc(C(F)(F)F)cc34)C2=O)[C@H](NC(=O)COCCNC(=O)COCCOCCNC(=O)CCNC(=O)[C@H]2CC(=O)N(C)[C@@H]2c2cccnc2)C1 :: 0.40
CC(C)N(C)[C@@H]1CC[C@H](N2CC[C@H](Nc3ncnc4ccc(C(F)(F)F)cc34)C2=O)[C@H](NC(=O)[C@H]2C[C@H](NC(=O)CCOC[C@H]3CC[C@H](COCCNC(=O)[C@H]4CC(=O)N(C)[C@@H]4c4cccnc4)CC3)C2)C1 :: 0.00

Okay, now this compound:
// fetch endogenous target monocytes in human PBMC log10 of EC50 for CC(C)N(C)[C@@H]1CCC(N2CC[C@H](Nc3ncnc4ccc(C(F)(F)F)cc34)C2=O)[C@H](NC(=O)CCOCCOCCOCCOCCOCCOCCOCCOCCNC(=O)[C@H]2CC(=O)N(C)[C@@H]2c2cccnc2)C1 (some centres unmarked)
0.50
